In this section we review reported pIC50 values for a set of molecules.
measurement_target: DYRK1A (Homo sapiens (Human))
procedure_text: DYRK1A Inhibition Assay
Format: biochemical
condition_context: Compounds of Formula (I); DYRK1A 1 nM, ATP 20 μM, Ser/Thr 18 peptide 2 μM, 90 minutes; read-out: DYRK1 IC50
pIC50: −log10 of the molar value.

Entry under test: O=C(O)[C@H]1C[C@H](c2c[nH]c3ncc4cccnc4c32)C1 . Its pIC50 was 7.00 to 8.00

Entry under test: O[C@H]1CCN(c2cncc(-c3ccc4cnc5[nH]cc(C6CCC6)c5c4c3)c2)C1 . Its pIC50 was ≥ 8.00

Entry under test: Cn1cc(-c2ccc3cnc4nc(C5CCOCC5)sc4c3c2)cn1 . Its pIC50 was 6.00 to 7.00

Entry under test: CN1CCN(c2nccc3c2cnc2[nH]cc(-c4ccncc4)c23)CC1 . Its pIC50 was 7.00 to 8.00

Entry under test: c1ncc(-c2ccc3cnc4sc(C5CCN(CC6CC6)CC5)nc4c3c2)s1 . Its pIC50 was 7.00 to 8.00

Entry under test: CN1CCC(c2c(C(F)(F)F)[nH]c3ncc4cc(-c5cnco5)ccc4c23)CC1 . Its pIC50 was < 6.00

Entry under test: Cc1c(C2CCN(CC(C)(C)O)CC2)[nH]c2ncc3ccc(-c4cnn(C)c4)cc3c12 . Its pIC50 was ≥ 8.00

Entry under test: c1nc2c(ncc3ccc(-c4cncs4)cc32)[nH]1 . Its pIC50 was ≥ 8.00

Entry under test: Cn1cc(-c2ccc3cnc4c(c(C5CCC5)cn4C)c3c2)cn1 . Its pIC50 was 7.00 to 8.00

Entry under test: Cc1c(-c2cccc(C(=O)O)c2)[nH]c2ncc3ccncc3c12 . Its pIC50 was 6.00 to 7.00

Entry under test: CN1CCC(C#Cc2ncc(-c3ccc4cnc5[nH]ccc5c4c3)s2)CC1 . Its pIC50 was ≥ 8.00

Entry under test: Cn1cc(-c2ccc3cnc4nc(C5CCOCC5)oc4c3c2)cn1 . Its pIC50 was 6.00 to 7.00

Entry under test: Cc1[nH]c2ncc3ccncc3c2c1-c1cccc(C(=O)O)c1 . Its pIC50 was 6.00 to 7.00

Entry under test: Cc1c[nH]c2ncc3ccc(-c4cnc(C#CC5CCOCC5)s4)cc3c12 . Its pIC50 was ≥ 8.00

Entry under test: O[C@@H]1CCN(c2cncc(-c3ccc4cnc5[nH]c(C6CCC6)cc5c4c3)c2)C1 . Its pIC50 was 7.00 to 8.00

Entry under test: Cn1cc(-c2ccc3cnc4c(c3c2)c([C@H]2CC[C@@H](C(=O)O)CC2)cn4C)cn1 . Its pIC50 was 7.00 to 8.00

Entry under test: Cn1cc(-c2ccc3cnc4cc(C5CCOCC5)sc4c3c2)cn1 . Its pIC50 was ≥ 8.00

Entry under test: c1ncc(-c2ccc3cnc4cc(C5CCOCC5)sc4c3c2)o1 . Its pIC50 was 7.00 to 8.00
